Exercise: state measured pIC50 for each of the compounds provided.
system.name: human plasma kallikrein (Homo sapiens (Human), UniProt P03952)
Sequence (P03952 391-638): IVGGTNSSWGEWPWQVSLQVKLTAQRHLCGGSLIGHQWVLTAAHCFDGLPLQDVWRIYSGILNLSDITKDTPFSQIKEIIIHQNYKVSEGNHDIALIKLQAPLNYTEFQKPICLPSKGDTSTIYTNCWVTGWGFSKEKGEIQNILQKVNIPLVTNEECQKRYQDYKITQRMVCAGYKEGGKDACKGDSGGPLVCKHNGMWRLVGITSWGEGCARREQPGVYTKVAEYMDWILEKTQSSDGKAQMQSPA
Sequence (P03952 20-390 partner): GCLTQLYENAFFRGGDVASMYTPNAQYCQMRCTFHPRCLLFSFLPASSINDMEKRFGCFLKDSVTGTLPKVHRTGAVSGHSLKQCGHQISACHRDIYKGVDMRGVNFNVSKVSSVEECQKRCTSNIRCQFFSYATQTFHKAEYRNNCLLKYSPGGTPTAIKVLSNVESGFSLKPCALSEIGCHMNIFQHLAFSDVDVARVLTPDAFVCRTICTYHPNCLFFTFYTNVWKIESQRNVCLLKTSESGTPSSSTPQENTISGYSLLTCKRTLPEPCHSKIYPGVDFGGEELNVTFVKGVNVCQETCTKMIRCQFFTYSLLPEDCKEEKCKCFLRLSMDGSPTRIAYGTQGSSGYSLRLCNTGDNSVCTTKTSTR
procedure.text: Determination of the plasma kallikrein activity
experimental.setup: plasma kallikrein from Kordia, substrate H-Pro-Phe-Arg-AMC, fluorescence
Answers are plain numbers, as −log10 of the molar value.

Guide cases for pIC50, answers given:
compound	system.name	result.number
COCCC(C(=O)Nc1ccc(C(=O)O)s1)n1cc2c(cc1=O)-c1cc(Cl)ccc1CC1(CC1)NC2=O (centres unmarked) [Example 22]	human plasma kallikrein (Homo sapiens (Human), UniProt P03952)	6.47
CO[C@H]1CC[C@H](CC(C(=O)Nc2ccc(C(N)=O)c(F)c2)n2cc3c(cc2=O)-c2cc(Cl)ccc2CC2(CC2)NC3=O)CC1 (some centres unmarked) [Example 26]	human plasma kallikrein (Homo sapiens (Human), UniProt P03952)	6.13
COCCC(C(=O)Nc1ccc(C(=O)O)cc1)n1cc2c(cc1=O)-c1cc(Cl)ccc1CC1(CC1)NC2=O (centres unmarked) [Example 12]	human plasma kallikrein (Homo sapiens (Human), UniProt P03952)	6.41
COCCC(C(=O)Nc1ccc(C(N)=O)c(F)c1)n1cc2c(cc1=O)-c1cc(Cl)ccc1CC1(CC1)NC2=O (centres unmarked) [Example 13]	human plasma kallikrein (Homo sapiens (Human), UniProt P03952)	6.11
CCC(C(=O)Nc1ccc(-c2noc(=O)[nH]2)cc1)n1cc2c(cc1=O)-c1cc(Cl)ccc1CC1(CC1)NC2=O (centres unmarked) [Example 11]	human plasma kallikrein (Homo sapiens (Human), UniProt P03952)	5.77

Each compound below has a recorded value; state its pIC50.
1. Cn1cc2cc(NC(=O)C(Cc3ccccc3)n3cc4c(cc3=O)-c3cc(Cl)ccc3CC3(CC3)NC4=O)ccc2n1 (centres unmarked) [Example 30]
2. COCCC(C(=O)Nc1ccc2[nH]c(=O)[nH]c2c1)n1cc2c(cc1=O)-c1cc(Cl)ccc1CC1(CC1)NC2=O (centres unmarked) [Example 14]
3. COCCC(C(=O)Nc1ccn2nccc2c1)n1cc2c(cc1=O)-c1cc(Cl)ccc1CC1(CC1)NC2=O (centres unmarked) [Example 16]
4. CCC(C(=O)Nc1ccc(-c2noc(=O)[nH]2)cc1)n1cc2c(cc1=O)-c1cc(Cl)ccc1CNC2=O (centres unmarked) [Example 2]

1. 7.35
2. 6.64
3. 6.68
4. 5.31

----------
system.name: human plasma kallikrein (Homo sapiens (Human))
procedure.text: Determination of the plasma kallikrein activity
experimental.setup: plasma kallikrein from Kordia, substrate H-Pro-Phe-Arg-AMC, fluorescence
parameter.measured: IC50 (nM)
Give bare numbers, in nM.

Example entries and their recorded answers appear below.
                                   molecule  result_number
0  CO[C@H]1CC[C@H](CC(C(=O)Nc2ccc3[nH]c(=O)[nH]c3c2)n2cc3c(cc2=O)-c2cc(Cl)ccc2CC2(CC2)NC3=O)CC1 (stereo partly drawn)            250
1  CC(C)CC(C(=O)Nc1ccc(C(=O)O)cc1)n1cc2c(cc1=O)-c1cc(Cl)ccc1CCNC2=O (stereo not drawn)            680

For the next question, use this molecule.
For COCCC(C(=O)Nc1ccc2nn(C)cc2c1)n1cc2c(cc1=O)-c1cc(Cl)ccc1CC(CF)NC2=O (stereo not drawn) , write its IC50.
42

Data provenance is patent US10138236B2.
